Data origin: PubChem BioAssay (NCATS)

Experiment: qHTS of pediatric cancer cell lines to identify multiple opportunities for drug repurposing: Primary screen for Rh41 cells (AID 1347108); note: nearly all actives have a fitted effect of over 70% in size
Settings: Rh41 rhabdomyosarcoma viability, CellTiter-Glo luminescence, 48 h; series mostly up to 46 µM
Inconclusive results are not listed. Calls of active or inactive are those of the source. Calls come from the whole dose curve; as a rule, active = well fitted cell-killing curve with a large enough effect; inconclusive = small, poorly fitted or top-dose-only effect; inactive = no such curve, though single readings can be large or run the other way.
Hi there, use one of these labels in your reply, thanks! active, inactive

Please review the following examples before continuing.
C[C@]12CC[C@@H]3c4ccc(OC(=O)N(CCCl)CCCl)cc4CC[C@H]3[C@@H]1CC[C@@H]2OP(=O)(O)O = inactive
C[C@]12CC[C@H]3[C@@H](CCC4=CC(=O)CC[C@@H]43)[C@@H]1CC[C@@H]2OC(=O)CCc1ccco1 = inactive
NCCc1ccc(O)cc1 = inactive
O=C(CCCN1CCC2(CC1)C(=O)NCN2c1ccccc1)c1ccc(F)cc1 = inactive

What did the test return for `C[C@](O)(CS(=O)(=O)c1ccc(F)cc1)C(=O)Nc1ccc(C#N)c(C(F)(F)F)c1` ?
active

Field entry: `CC(=O)OCC1=C(C(=O)O)N2C(=O)[C@@H](N)[C@H]2SC1`
inactive

Next: `O=C(O)CCCc1ccc(N(CCCl)CCCl)cc1`
inactive

Check `C[C@]12CC[C@H]3[C@@H](CCC4=CC(=O)CC[C@@H]43)[C@@H]1CC[C@@H]2OC(=O)CCC1CCCCC1` too.
inactive

Now try `COC(=O)[C@@H](N)CCCN/C(N)=N/[N+](=O)[O-]` .
inactive

`Oc1ccc(Cl)cc1` , same question.
inactive

----------
Test: qHTS for Inhibitors of the Functional Ribonucleoprotein Complex (vRNP) of Lymphocytic Choriomeningitis Arenaviruses (LCMV): Viability assay - alamar blue signal for LCMV Primary Screen (AID 1347085); note: nearly all actives have a fitted effect of over 80% in size
Details: alamar blue viability counter-screen, LCMV vRNP screen cells; series mostly up to 57.5 µM
Inconclusive results are not listed. The source made the active and inactive calls. The call rests on the fitted dose curve; tested in HEK293 reporter line.
I would appreciate it if you answered using one of these outcomes: 1.0 for active, 0.0 for inactive

CC(=O)NCCCCCC(=O)O = 0.0
NCC(=O)CCC(=O)O = 0.0
COc1cc([C@@H]2c3cc4c(cc3[C@@H](O[C@@H]3O[C@@H]5CO[C@@H](c6cccs6)O[C@@H]5[C@H](O)[C@@H]3O)[C@H]3COC(=O)[C@H]23)OCO4)cc(OC)c1O = 1.0
NC(=O)NC1NC(=O)NC1=O (stereo not given) = 0.0

Next item in the queue.
Which result was noted for this compound in the test: `C[C@@H]1CN(c2c(F)c(F)c3c(=O)c(C(=O)O)cn(C4CC4)c3c2F)C[C@H](C)N1`
0.0

----------
Experiment: Drug repurposing screens with cells derived from glioblastoma tumor samples (AID 1345199); note: % is set by controls: 0 for no effect and ±100 for the full control effect; nearly all actives have a fitted effect of over 40% in size
Details: GBM patient neurospheres viability, ATP luminescence, 48 h; at 45.9 µM (top of the series); tumour line D
Inconclusive results are not listed. The source made the active and inactive calls. Calls come from the whole dose curve; as a rule, active = well fitted inhibition curve with a large enough effect; inconclusive = small, poorly fitted or top-dose-only effect; inactive = flat fitted curve, though single readings scatter.
# activity, negative = cell killing per entry

CN1C(=O)C(O)N=C(c2ccccc2)c2cc(Cl)ccc21 (centres undefined) = -6.26% (inactive)
COP(=S)(OC)Oc1ccc(S(=O)(=O)N(C)C)cc1 = -25% (inactive)

Look at this compound and give its reported activity, negative = cell killing. `CCC1(CC)C(=O)C=CNC1=O`
-8.64% (inactive)

----------
Assay: Cellular Toxicity (caspase-3) H-4-II-E (AID 663);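 note: cells exposed to compound for 16 hr before readout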
Settings: H-4-II-E rat hepatoma, scaled: DMSO 0%, 100 µM tamoxifen 100%; series mostly up to 92.2 µM
Results filed as inconclusive are left out. The source made the active and inactive calls. Calls come from the whole dose curve; as a rule, active = well fitted activation curve with a large enough effect; inconclusive = small, poorly fitted or top-dose-only effect; inactive = flat fitted curve, though single readings scatter.
QUANTITY_NAME: outcome

# example entries with known answers
C[C@]1(O)CC[C@H]2[C@@H]3CCC4=CC(=O)CC[C@]4(C)[C@@]3(F)[C@@H](O)C[C@@]21C = inactive
COC(=O)C(c1ccccc1)C1CCCCN1 (stereo unspecified) = inactive
CCCC(C)(COC(N)=O)COC(N)=O = inactive
CCC(C)(C)c1ccc(O)cc1 = inactive
O=P1(N(CCCl)CCCl)NCCCO1 (stereo unspecified) = inactive
CCOC(=O)CC(SP(=S)(OC)OC)C(=O)OCC (stereo unspecified) = inactive

// query outcome value for entry `CC(C)NC(C)C`
inactive

Similarly, `O=C(O)CCCc1ccc(N(CCCl)CCCl)cc1` ?
inactive

And for `Nc1ccccc1` ?
inactive

Repeat for the following compound: `Clc1ccc(C(c2ccc(Cl)cc2)C(Cl)(Cl)Cl)cc1`
inactive

Can you handle `Nc1ccccc1C(=O)O` next?
inactive
